Tested on: PC-3 prostate
Test: NCI tumour cell line growth inhibition, 48 h
Each entry below lists one item and its recorded TGI value.

# annotated cases, reported TGI shown
S=C1N=C2C(=N1)n1c3c(c4ccccc41)CCCC23 (stereo unspecified)
> 100 µM
Cc1ccc(Cc2nc(=S)[nH][nH]2)cc1
> 100 µM

Summary for this molecule, COc1cccc(N=Cc2cc(OC)c(OC)c(OC)c2)c1 : TGI is > 100 µM

Summary for this molecule, CC(C)C[C@H](NC(=O)Cn1ccc(Nc2ccccc2)cc1=O)B(O)O : TGI is 36 µM

Summary for this molecule, N#Cc1nc(C(O)c2ccccc2)oc1N (stereo unspecified) : TGI is > 100 µM

Summary for this molecule, CC(C)CSCC1OC(n2cnc3c(N)nccc32)C(O)C1O (stereo unspecified) : TGI is > 100 µM
